Values were extracted from patent US9422292B2.

biological target: BRD4 (BD1) (Homo sapiens, UniProt O60885); construct: His; made in house; assay: BRD4 AlphaLisa binding assay; settings: BRD4 (BD1) 30 nM, biotinylated H4-tetraacetyl peptide 200 nM; read-out: BRD4 AlphaLisa
pIC50: −log10 of the molar value.
assay.readout: pIC50

Known results for molecules:
- molecule: "Cc1nnc2n1-c1ccc(-c3cnn(C)c3)cc1N(c1ccc(Cl)cc1)CC2 [Compound 30]"
  assay.readout: "pIC50"
  observed.value: "> 7.00"
- molecule: "Cc1nnc2n1-c1ccc(S(C)(=O)=O)cc1N(c1ccc(Cl)cc1)C[C@H]2C [Compound 60]"
  assay.readout: "pIC50"
  observed.value: "6.00 to 7.00"
- molecule: "Cc1nnc2n1-c1ccc(-c3cnn(C)c3)cc1N(c1ccc(C#N)cn1)C[C@@H]2C [Compound 58]"
  assay.readout: "pIC50"
  observed.value: "5.00 to 6.00"

Now, please, on to the next molecule.
Field pIC50 (entry Cc1nnc2n1-c1ccc(-c3ccc(N)nc3)cc1N(c1ccc(C(N)=O)cc1)CC2C (stereo in doubt) [Compound 70] ) reads > 7.00

---

Listed next: entries and their corresponding IC50.
molecular target: BRD4 (BD1) (Homo sapiens); construct: His; made in house; assay: BRD4 AlphaLisa binding assay; settings: BRD4 (BD1) 30 nM, biotinylated H4-tetraacetyl peptide 200 nM; read-out: BRD4 AlphaLisa

Known results for molecules:
- compound.structure: "Cc1nnc2n1-c1ccc(Br)cc1N(c1ccc(Cl)cc1)CC21CC1"
  observed.value: "100 to 1000 nM"
- compound.structure: "Cc1nnc2n1-c1ccc(Br)cc1N(c1ccc(Cl)cc1)C[C@H]2C"
  observed.value: "100 to 1000 nM"

Field IC50 (entry `Cc1nnc2n1-c1c(F)cccc1N(c1ccc(Cl)cc1)CC2` ) reads 1000 to 10000 nM

---

biological target: BRD4 (BD1) (Homo sapiens); construct: His; made in house; experiment: BRD4 AlphaLisa binding assay; settings: BRD4 (BD1) 30 nM, biotinylated H4-tetraacetyl peptide 200 nM; read-out: BRD4 AlphaLisa
pIC50: −log10 of the molar value.
assay.readout: pIC50

Known results for compounds:
- compound: "Cc1ncnn1-c1ccc2c(c1)N(c1ccc(Cl)cc1)C[C@@H](C)c1nnc(C)n1-2 [Compound 65]"
  observed.value: "6.00 to 7.00"
- compound: "Cc1nnc2n1-c1ccc(-c3ccc(N)nc3)cc1N(c1ccc(C(N)=O)cc1)CC2C (stereo in doubt) [Compound 69]"
  observed.value: "6.00 to 7.00"
- compound: "Cc1nnc2n1-c1ccc(-c3ncccn3)cc1N(c1ccc(Cl)cc1)CC2 [Compound 21]"
  observed.value: "6.00 to 7.00"

Field pIC50 (entry Cc1nnc2n1-c1ccc(-c3ccccc3)cc1NCC2 [Compound 7] ) reads < 5.00

---

test system: MYC mRNA in MV4:11 (AML) cells; experiment: cMyc RNA quantification assay (QuantiGene) in MV4:11 cells; type: cell-based; settings: Homo sapiens, 4 h, QuantiGene 2.0
Listed next: entries and their corresponding IC50.

Known results for molecules:
- compound.structure: "Cc1nnc2n1-c1ccc(-c3cnn(C)c3)cc1N(c1ccc(Cl)cc1)C[C@H]2C"
  observed.value: "< 100 nM"
- compound.structure: "Cc1c(-c2ccc3c(c2)N(c2ccc(Cl)cc2)C[C@@H](C)c2nnc(C)n2-3)cnn1C"
  observed.value: "< 100 nM"
- compound.structure: "Cc1nnc2n1-c1ccc(-c3cnc(N)cn3)cc1N(c1ccc(Cl)cn1)C[C@H]2C"
  observed.value: "< 100 nM"
- compound.structure: "Cc1nnc2n1-c1ccc(-c3ccc(N)nc3)cc1N(c1ccc(C#N)cc1)CC2"
  observed.value: "100 to 1000 nM"
- compound.structure: "Cc1nnc2n1-c1ccc(-c3cnn(C)n3)cc1N(c1ccc(C#N)cc1)C[C@H]2C"
  observed.value: "< 100 nM"

Simply: `Cc1[nH]c(=O)ccc1-c1ccc2c(c1)N(c1ccc(Cl)cc1)C[C@@H](C)c1nnc(C)n1-2` , MYC mRNA in MV4:11 (AML) cells, IC50 = 100 to 1000 nM

Simply: `Cc1nnc2n1-c1ccc(-c3ccc(=O)n(C)c3)cc1N(c1ccc(Cl)cc1)C[C@H]2C` , MYC mRNA in MV4:11 (AML) cells, IC50 = < 100 nM

Simply: `Cc1nnc2n1-c1ccc(-c3ccc(N)nc3)cc1N(c1ccc(Cl)cc1)C[C@@H]2C` , MYC mRNA in MV4:11 (AML) cells, IC50 = 1000 to 10000 nM

Simply: `Cc1nnc2n1-c1ccc(-c3ccc(=O)[nH]c3)cc1N(c1ccc(S(C)(=O)=O)cc1)C[C@H]2C` , MYC mRNA in MV4:11 (AML) cells, IC50 = 1000 to 10000 nM

Simply: `Cc1nnc2n1-c1ccc(C(N)=O)cc1N(c1ccc(Cl)cc1)C[C@H]2C` , MYC mRNA in MV4:11 (AML) cells, IC50 = < 100 nM

---

molecular target: BRD4 (BD1) (Homo sapiens, UniProt O60885); construct: His; made in house; experiment: BRD4 AlphaLisa binding assay; conditions: BRD4 (BD1) 30 nM, biotinylated H4-tetraacetyl peptide 200 nM; read-out: BRD4 AlphaLisa
pIC50: −log10 of the molar value.
assay.readout: pIC50

Known results for compounds:
- compound: "Cc1nnc2n1-c1ccccc1NC(C)C2 (centres unmarked)"
  system.tested: "BRD4 (BD1) (Homo sapiens, UniProt O60885)"
  pIC50: "< 5.00"
- compound: "Cc1nnc2n1-c1ccc(-c3ccc(N)nc3)cc1N(c1ccc(C#N)cc1)CC2"
  system.tested: "BRD4 (BD1) (Homo sapiens, UniProt O60885)"
  pIC50: "6.00 to 7.00"
- compound: "Cc1nnc2n1-c1ccc(-c3ccc(=O)[nH]c3)cc1N(c1ccc(C#N)cc1)C[C@H]2C"
  system.tested: "BRD4 (BD1) (Homo sapiens, UniProt O60885)"
  pIC50: "> 7.00"
- compound: "Cc1nc(-c2ccc3c(c2)N(c2ccc(Cl)cc2)C[C@@H](C)c2nnc(C)n2-3)no1"
  system.tested: "BRD4 (BD1) (Homo sapiens, UniProt O60885)"
  pIC50: "6.00 to 7.00"
- compound: "Cc1nnc2n1-c1ccc(-c3cnn(C)n3)cc1N(c1ccc(C#N)cc1)C[C@@H]2C"
  system.tested: "BRD4 (BD1) (Homo sapiens, UniProt O60885)"
  pIC50: "6.00 to 7.00"
- compound: "Cc1nnc2n1-c1ccc(-c3cnc(N)nc3)cc1N(c1ccc(Cl)cc1)CC2C (centres unmarked)"
  system.tested: "BRD4 (BD1) (Homo sapiens, UniProt O60885)"
  pIC50: "> 7.00"
- compound: "Cc1nnc2n1-c1ccc(C#CC(C)(C)N)cc1N(c1ccc(Cl)cc1)CC2C (centres unmarked)"
  system.tested: "BRD4 (BD1) (Homo sapiens, UniProt O60885)"
  pIC50: "6.00 to 7.00"

Now, please, on to the next compound.
Field pIC50 (entry `Cc1nnc2n1-c1ccc(-c3ccc(N)nc3)cc1N(c1ccc(Cl)cc1)C[C@H]2C` ) reads > 7.00

---

Test system: MYC mRNA in MV4:11 (AML) cells
Experiment: cMyc RNA quantification assay (QuantiGene) in MV4:11 cells
Format: cell-based
Conditions: Homo sapiens, 4 h, QuantiGene 2.0
Experimental: B. cMyc RNA Quantification Assay (QuantiGene® Assay): MV4:11 (AML) cells were seeded in a 96-well plate and incubated in the presence of various concentrations of compounds for 4 h. Relative mRNA levels were quantitated by using QuantiGene 2.0 assay (Affymetrix) according to the manufacturer's recommendation. Signals were detected by using an Envision plate reader (Perkin-Elmer). Biological duplicates were averaged and normalized to vehicle (DMSO) control to calculate percent MYC mRNA levels.
pIC50: −log10 of the molar value.
Listed next: entries and their corresponding pIC50.

- compound: "Cc1nnc2n1-c1ccc(-c3cnc(N)cn3)cc1N(c1ccc(C#N)cc1)C[C@@H]2C [Compound 63]"
  pIC50: "5.00 to 6.00"
- compound: "Cc1nnc2n1-c1ccc(Br)cc1N(c1ccc(S(C)(=O)=O)cc1)C[C@H]2C [Compound 77]"
  pIC50: "5.00 to 6.00"
- compound: "Cc1nnc2n1-c1ccc(-c3cnn(C)c3)cc1N(c1ccc(C#N)cn1)C[C@@H]2C [Compound 58]"
  pIC50: "5.00 to 6.00"
- compound: "Cc1nnc2n1-c1ccc(C(=O)N3CCCC3)cc1N(c1ccc(Cl)cc1)C[C@H]2C [Compound 53]"
  pIC50: "5.00 to 6.00"
- compound: "Cc1nnc2n1-c1ccccc1N(c1ccc(Cl)cc1)CC2(C)C [Compound 3]"
  pIC50: "5.00 to 6.00"

Simply: Cc1nnc2n1-c1ccc(-c3ccc(N)nc3)cc1N(c1ccc(C(F)(F)F)cc1)CC2 [Compound 19] , MYC mRNA in MV4:11 (AML) cells, pIC50 = 6.00 to 7.00

Simply: Cc1nnc2n1-c1ccc(C(=O)NCCO)cc1N(c1ccc(Cl)cc1)C[C@H]2C [Compound 47] , MYC mRNA in MV4:11 (AML) cells, pIC50 = 6.00 to 7.00
